Test system: Cholesterol Synthesis in HepG2 Cells
Assay: HepG2 cell culture model, 14C-acetate incorporation assay
Format: cell-based, human
Conditions: Homo sapiens, HepG2; 4 hr. Incubation; read-out: IC₅₀
property: IC50 (nM)
Only the number, expressed in nM, is required.

I'd like to know its IC50. The molecule in question is CC(C)=CCC/C(C)=C/CC/C(C)=C/CCC1(C)CCc2cc(O)c(C)c(C)c2O1 (stereo not shown)
2800
